# Test Method Notes: Selectivity index, ratio of CC50 for human MT4 cells to EC50 for HIV2 ROD
# Assay type: toxicity, cell-based
# Experimental Context: read-out: Ratio CC50/EC50
Measurement Label: selectivity ratio

Consider the worked cases shown below.
COC(=O)c1ccsc1NC(=O)CSc1snnc1-c1ccc(Br)cc1Br    ≥ 1
O=C(CSc1snnc1-c1ccc(Br)cc1Br)Nc1ccccc1Cl    > 1
O=C(CSc1snnc1-c1ccc(Br)cc1Br)Nc1ccccc1Br    > 1
O=C(CSc1snnc1-c1ccc(Br)cc1Br)Nc1ccccc1F    < 1
O=C(CSc1snnc1-c1ccc(Br)cc1Br)Nc1nccs1    < 1

Would you mind giving selectivity ratio for every compound in the list below?
1. Cc1cccc(C)c1NC(=O)CSc1snnc1-c1ccc(Br)cc1Br
2. Cc1ccccc1NC(=O)CSc1snnc1-c1ccc(Br)cc1Br

["< 1", "< 1"]
